# System: HCC-2998 colon
# assay summary: NCI-60 one-dose screen, 48 h (100 = growth as untreated, 0 = no growth, -100 = all killed)
# reported conditions: 10 µM unless noted
The panel holds about 83,000 compounds, 20% with a hit somewhere; the sample as a whole holds those more often.
# growth values compiled below
property measured: growth (%)

Cc1ccc2c(c1)ncn2-c1ncnc2c1CC(C)c1ccccc1N2C (stereo unspecified) | 26.8
O=S(=O)(NCCNc1nccc(-c2c(-c3ccccc3)nc3sccn23)n1)c1ccc(O)cc1 | 64.9
COc1ccc(C(=O)c2cc(OC)c(OC)c(OC)c2)cc1/C=C/C(=O)c1ccc(O)cc1 | -22.4
c1ccc2nc(-c3ccc4ccccc4n3)ccc2c1 | 101
CCOC(=O)CC/C(C)=N\Nc1ccc([N+](=O)[O-])cc1 | 60.4
CC(C)C[C@H](NC(=O)[C@@H](Cc1ccccc1)n1ccc(Nc2ccccc2)cc1=O)B(O)O | -83.8
O=C1OC(c2ccccc2)=N/C1=C\c1ccc([N+](=O)[O-])cc1 | 108
CCN(Cc1ccc(CN(CC)C(=O)C(Br)Br)cc1)C(=O)C(Br)Br | 18.8
CC/C=C\C[C@H](O)C/C=C1/C(=O)C(Cl)=C[C@@H]1C/C=C\CCCC(=O)O | 76.4
O=C(CCC(=O)OC1CCCC1)OC1CCCC1 | 101
Nc1c(C(=O)Nc2cccc(C(F)(F)F)c2)sc2nc3c(cc12)C(O)CCC3 (stereo unspecified) | 78.8
O=C(Nc1ccc(Br)c(Cl)c1)c1cc(F)ccc1O | 14.7
CC(=O)Nc1ccc2c(c1)/C(=C\C=C/c1ccc([N+](C)(C)C)cc1)c1ccccc1-2 | 114
c1cc(-c2ccc3c(c2)OCO3)n2nccc2n1 | 86.9
COc1ccc(C(=O)/C=C/c2cccc([N+](=O)[O-])c2)c(OC)c1 | 36.6
COc1cccc(-c2nc3sccn3c2-c2ccnc(NCCNS(=O)(=O)c3ccccc3)n2)c1 | 119
O=C(c1ccccc1)C(Cl)C(Cl)c1ccccc1 (stereo unspecified) | 98.1
NC(=O)c1c(NC(=O)c2ccc3c(c2)OCO3)sc2c1CCC(=O)C2 | 12.5
CC(C)CCN(CCCNc1c2c(nc3ccccc13)CCCC2)CCC(C)C | 69.7
COc1ccc(Cn2c(SC)nc(=O)n(Cc3ccc(Cl)cc3)c2=O)cc1 | 103
O=[N+]([O-])c1c(S(=O)(=O)O)cc2cc(S(=O)(=O)O)ccc2c1[N+](=O)[O-] | 99.2

====

# growth values compiled below
# Tested on: SK-OV-3 ovarian
# assay summary: NCI-60 one-dose screen, 48 h (100 = growth as untreated, 0 = no growth, -100 = all killed)
# reported conditions: 10 µM unless noted
This is part of a sample that, as a whole, favours compounds with a hit. Of some 83,000 tested, about 20% had one in any assay.
property measured: growth (%)

CCOC(=O)C1=C(CSC(=S)N(C2CCCCC2)C2CCCCC2)N(C)C(=O)NC1c1ccccc1 (stereo not given) | 71.4
CSc1nc(-c2cc3ccccc3o2)cc(-c2ccc(Cl)cc2)c1C#N | -21.3
CC(C)(C)c1ccc(S(=O)(=O)Oc2ccc3c4c(c(=O)oc3c2)CCCCC4)cc1 | 71.4
COc1cc(CNC(=O)CSc2nc3ccccc3c(=O)n2Cc2cc(OC)c(OC)c(OC)c2)cc(OC)c1OC | 108
O=C(Nc1ccc(F)c(Cl)c1)c1n[nH]c(=O)c2ccccc12 | 119
O=C(CSc1nc(-c2ccc(Cl)cc2)cn1-c1ccc(Cl)cc1)c1ccc(Br)cc1 | 79
CCN(C(=O)c1cc2ncccc2[nH]1)[C@H]1CCC[C@@H](NCc2cccc(F)c2)C1 | 103
Cc1cccc(NC(=O)c2sc3nc4c(cc3c2N)CCCC4)c1 | 44
CN=S(=O)(NC(=O)c1ccc(Cl)cc1Cl)c1ccc(Br)s1 (stereo not given) | 111
O=C(CNC(=O)c1cccc2ccccc12)Nc1ccccc1Oc1ccccc1 | 23.3

====

# Test system: HOP-62 NSCLC
# assay summary: NCI-60 one-dose screen, 48 h
# reported conditions: 10 µM unless noted
# Protocol: Growth inhibition of the HOP-62 human Non-Small Cell Lung tumor cell line is measured as a screen for anti-cancer activity. Cells are grown in 96 well plates and exposed to the test compound for 48 hours. Compounds are tested at a single concentration, which is 10^-5 M for most compounds. The reported endpoint is percent growth (GI% or GIPRCNT), where numbers from 0 - 100% represent growth inhibition, and numbers from -100% - 0 represent cell death. […]
This is part of a sample that, as a whole, favours compounds with a hit. Of some 83,000 tested, about 20% had one in any assay. Active and inactive are the calls of the source. Rule for the calls: active = growth percent below 10; inactive = the rest.
Possible outcomes: label 1 = active, label 0 = inactive

COc1ccc2c(c1)C(C)Cc1c(N(C)C)ncnc1N2C (stereo unspecified) | label 0
Cc1cccc(NC(=O)c2sc3nc4c(cc3c2N)CCC4)c1C | label 0
CCN(CC)c1cc(/C=C/c2ccc(OC)c(OC)c2)nc2cc(F)c(F)cc12 | label 1
O=P([O-])(O)OP(=O)([O-])O.[NH-][C@H]1CCCC[C@@H]1[NH-].[OH-].[OH-].[Pt+4] | label 0
CCC1CCc2nc3sc(C(=O)Nc4ccccc4F)c(N)c3cc2C1 (stereo unspecified) | label 0
CCCCCCCCCCn1cc[n+](C)c1 | label 0
COc1ccc2c(c1)NC(=O)CN2c1nc(NC2CC2)nc2ccccc12 | label 0
COc1ccc(Cl)cc1NC(N)=S | label 0
COc1ccc(Cn2c(SC)nc(=O)n(Cc3ccc(Cl)cc3)c2=O)cc1 | label 0
Cc1nn(-c2ccc(Cl)cc2)c(=O)n1CCOc1ccccc1Cl | label 0
Oc1ccc(Cl)cc1-c1cc(-c2ccc(Cl)cc2)n[nH]1 | label 0
COc1ccc(-c2cn[nH]c2-c2cc(OC)c3c(c2)OCO3)cc1 | label 0
CCOc1ccc(/C=C/C=N/NC(N)=S)cc1 | label 0
CCN1C(=S)N(CC)C2Nn3c(s/c(=C4\C(=O)N(C)c5ccccc54)c3=O)=NC21 (stereo unspecified) | label 0
C=CC(=O)N[C@H](/C=C/C(=O)OCC)Cc1ccc(-c2cc(Cl)cc(Cl)c2)cc1 | label 0
CC(CCc1ccccc1)NC(=O)c1n[nH]c(=O)c2ccccc12 (stereo unspecified) | label 0
CC1Cc2c(N(C)C)ncnc2N(C)c2ccc(O)cc21 (stereo unspecified) | label 0
COc1cc(/C=C2\CCCC3=C2NC(C)=NC3c2cc(OC)c(OC)c(OC)c2)cc(OC)c1OC (stereo unspecified) | label 0
CCOC(=O)C1=C(CSC(=S)N(C2CCCCC2)C2CCCCC2)N(C)C(=O)NC1c1ccccc1 (stereo unspecified) | label 0
CC(=O)n1cc([C@H]2CC[C@H](c3cn(C(C)=O)c4ccccc34)c3c2[nH]c2ccccc32)c2ccccc21 | label 0
COC1=CC(c2ccc[nH]2)=N/C1=C\c1[nH]c(C)c(C(=O)CCCCC(=O)Oc2ccc3c(c2)CCC2C3CC[C@]3(C)[C@@H](O)CC[C@@H]23)c1C (stereo partly specified) | label 0
Cc1ccc(C(=O)c2sc3nc4c(cc3c2N)CCCC4)c(C)c1 | label 0
O=C(O)c1ccc(-n2cc(CNc3ccc(C(F)(F)F)cc3)c(-c3ccccc3)n2)cc1 | label 0
CCCCCCCC/C=C\CCCCCCCCOc1ccccc1CCOP(=O)(O)OCC[N+](C)(C)C | label 0
COc1cccc(NC(=O)Cn2cc3c(=O)oc4ccccc4c3n2)c1 | label 0
CN(C)c1ccc(-c2ccc(-c3ccc(C(=N)N)cn3)o2)cc1 | label 1
COc1ccc(/C(=N/O)c2cc(F)c(F)c(OC)c2F)cc1O | label 0
Cc1cc(Cl)ccc1OC(C)C(=O)Nc1nnc(C2CC2)s1 (stereo unspecified) | label 0
O=[N+]([O-])c1cc(S(=O)(=O)OCC2CO2)ccc1Cl (stereo unspecified) | label 0
COc1ccc(/C=c2\sc3n(c2=O)C2C(NN=3)N(C)C(=O)N2C)cc1 (stereo unspecified) | label 0
Cc1cc2c(c(=O)o1)C(c1ccc(OC(=O)N3CCOCC3)cc1)C(C#N)=C(N)O2 (stereo unspecified) | label 0
CCCC1OC(c2ccc(C(C)C)cc2)OCC1CC (stereo unspecified) | label 0
COc1cc(Cn2c(SCCC(=O)Nc3ccc(F)cc3)nc3ccccc3c2=O)cc(OC)c1OC | label 0
NC(=O)c1c(NC(=O)c2ccc3c(c2)OCO3)sc2c1CCC(=O)C2 | label 0
Cc1cc(NC(=O)COC(=O)c2sc3cc(F)ccc3c2Cl)no1 | label 0
COc1ccc(OC)c(/C=C2\Oc3cc(OCCN4CCCC4)ccc3C2=O)c1 | label 0
CC(C)N(Cc1ccc(CN(C(=O)CCl)C(C)C)cc1)C(=O)CCl | label 1
C/C(=C\c1csc(C)n1)[C@@H]1C[C@@H]2O[C@]2(C)CCC[C@H](C)[C@H](O)[C@@H](C)C(=O)C(C)(C)[C@@H](O)CC(=O)N1 | label 1
Cc1ccnc2nc(C(=O)OCC(=O)Nc3ccc(-c4ccccc4)cc3)nn12 | label 0
CC1=NN2C(=NC3=C(CCC/C3=C\c3ccc(Cl)cc3)C2c2ccc(Cl)cc2)S1 (stereo unspecified) | label 0
C/C(=N\NC(=O)CC#N)c1cc2cc(Cl)ccc2o1 | label 0
